- Tested on: Avena fatua
- TEST NAME: Post-emergence herbicidal action against AVEFA
- Assay type: in vivo
- STATED CONDITIONS: 20 g a.i./ha, visual rating about 3 weeks after treatment
RESULT TYPE: Herbicidal action against [%] AVEFA (%)

[
  {
    "COMPOUND": "COC1(C(=O)NC2C=CC(C(=O)OCCSC)C2)CC(c2cc(C)cc(F)c2)=NO1 (stereo not shown) [Example I-62]",
    "OBSERVED": 80
  },
  {
    "COMPOUND": "CSCCOC(=O)C1C=CC(NC(=O)C2(C(F)(F)F)CC(c3cc(F)cc(F)c3)=NO2)C1 (stereo not shown) [Example I-17]",
    "OBSERVED": 100
  },
  {
    "COMPOUND": "CSCCOC(=O)C1C=CC(NC(=O)C2(C)CC(c3cc(C)cc(Cl)c3)=NO2)C1 (stereo not shown) [Example I-75]",
    "OBSERVED": 80
  },
  {
    "COMPOUND": "CSCCOC(=O)C1C=CC(NC(=O)C2(CCl)CC(c3cc(F)cc(C#N)c3)=NO2)C1 (stereo not shown) [Example I-58]",
    "OBSERVED": 80
  }
]

---

Herbicidal action against [%] STEME values, listed per item
- System: Stellaria media
- TEST NAME: Post-emergence herbicidal action against STEME
- Format: in vivo
- STATED CONDITIONS: 20 g a.i./ha

[
  {
    "COMPOUND": "CSCCOC(=O)C1C=CC(NC(=O)C2(C)CC(c3cc(C#N)cc(C#N)c3)=NO2)C1 (mixture of isomers)",
    "QUANTITY UNIT": "%",
    "Herbicidal action against [%] STEME": 90
  },
  {
    "COMPOUND": "CSCCOC(=O)C1C=CC(NC(=O)C2(C)CC(c3cc(F)cc(F)c3)=NO2)C1 (stereo not drawn)",
    "QUANTITY UNIT": "%",
    "Herbicidal action against [%] STEME": 90
  },
  {
    "COMPOUND": "CSCCOC(=O)C1C=CC(NC(=O)C2(C)CC(c3cc(Cl)cc(C#N)c3)=NO2)C1 (mixture of isomers)",
    "QUANTITY UNIT": "%",
    "Herbicidal action against [%] STEME": 90
  },
  {
    "COMPOUND": "C=CC1(C(=O)NC2C=CC(C(=O)OCCSC)C2)CC(c2cc(F)cc(F)c2)=NO1 (stereo not drawn)",
    "QUANTITY UNIT": "%",
    "Herbicidal action against [%] STEME": 90
  },
  {
    "COMPOUND": "CSCCOC(=O)C1C=CC(NC(=O)C2(C(F)(F)F)CC(c3cc(F)cc(C#N)c3)=NO2)C1 (mixture of isomers) [Example I-38]",
    "QUANTITY UNIT": "%",
    "Herbicidal action against [%] STEME": 100
  },
  {
    "COMPOUND": "C=CC1(C(=O)NC2C=CC(C(=O)OCCSC)C2)CC(c2ccccc2)=NO1 (mixture of isomers)",
    "QUANTITY UNIT": "%",
    "Herbicidal action against [%] STEME": 90
  },
  {
    "COMPOUND": "CSCCOC(=O)C1C=CC(NC(=O)C2(C(F)(F)F)CC(c3cc(F)cc(F)c3)=NO2)C1 (stereo not drawn)",
    "QUANTITY UNIT": "%",
    "Herbicidal action against [%] STEME": 80
  },
  {
    "COMPOUND": "CSCCOC(=O)[C@@H]1C=C[C@H](NC(=O)C2(C(F)(F)F)CC(c3cc(F)cc(Cl)c3)=NO2)C1 (stereo partly drawn)",
    "QUANTITY UNIT": "%",
    "Herbicidal action against [%] STEME": 90
  },
  {
    "COMPOUND": "CSCCOC(=O)C1=CC(NC(=O)C2(C)CC(c3cc(F)cc(F)c3)=NO2)CC1 (stereo not drawn)",
    "QUANTITY UNIT": "%",
    "Herbicidal action against [%] STEME": 90
  },
  {
    "COMPOUND": "CSCCOC(=O)C1C=CC(NC(=O)C2(C)CC(c3cc(F)cc(Cl)c3)=NO2)C1 (stereo not drawn)",
    "QUANTITY UNIT": "%",
    "Herbicidal action against [%] STEME": 80
  },
  {
    "COMPOUND": "CSCCOC(=O)C1C=CC(NC(=O)C2(C)CC(c3cccc(C#N)c3)=NO2)C1 (stereo not drawn)",
    "QUANTITY UNIT": "%",
    "Herbicidal action against [%] STEME": 80
  },
  {
    "COMPOUND": "C=CC1(C(=O)NC2CC=C(C(=O)OCCSC)C2)CC(c2cc(F)cc(F)c2)=NO1 (stereo not drawn)",
    "QUANTITY UNIT": "%",
    "Herbicidal action against [%] STEME": 80
  },
  {
    "COMPOUND": "CSCCOC(=O)C1C=CC(NC(=O)C2(C)CC(c3cccc(F)c3)=NO2)C1 (stereo not drawn)",
    "QUANTITY UNIT": "%",
    "Herbicidal action against [%] STEME": 90
  },
  {
    "COMPOUND": "CSCCOC(=O)C1C=CC(NC(=O)C2(CCl)CC(c3cc(F)cc(F)c3)=NO2)C1 (stereo not drawn)",
    "QUANTITY UNIT": "%",
    "Herbicidal action against [%] STEME": 80
  },
  {
    "COMPOUND": "CSCCOC(=O)C1C=CC(NC(=O)C2(C3CC3)CC(c3cc(F)cc(F)c3)=NO2)C1 (stereo not drawn)",
    "QUANTITY UNIT": "%",
    "Herbicidal action against [%] STEME": 90
  },
  {
    "COMPOUND": "COC1(C(=O)NC2C=CC(C(=O)OCCSC)C2)CC(c2cccc(F)c2)=NO1 (mixture of isomers)",
    "QUANTITY UNIT": "%",
    "Herbicidal action against [%] STEME": 80
  },
  {
    "COMPOUND": "CSCCOC(=O)C1C=CC(NC(=O)C2(C(F)(F)F)CC(c3cc(F)cc(C#N)c3)=NO2)C1 (mixture of isomers) [Example I-37]",
    "QUANTITY UNIT": "%",
    "Herbicidal action against [%] STEME": 80
  },
  {
    "COMPOUND": "C=CC1(C(=O)NC2C=CC(C(=O)OCCSC)C2)CC(c2cc(C)cc(F)c2)=NO1 (mixture of isomers)",
    "QUANTITY UNIT": "%",
    "Herbicidal action against [%] STEME": 90
  }
]

// provenance: patent US12185723B2
